# Assayed Target: Human Thrombin (Homo sapiens, UniProt P00734)
# Experimental Protocol: Inhibition of the amidase activity of thrombin (Kass)
# Format: biochemical
# Measurement Setup: chromogenic substrate N-benzoyl-Phe-Val-Arg-p-nitroanilide; mean over range of concentrations
Counter-ions that a name gives are not always drawn.
# Kass × 10^6 (L/mole) Human Thrombin values compiled below

Take a look at these entries with their results.
Compound | Kass × 10^6 (L/mole) Human Thrombin
Cl.N=C(N)c1cc(CNC(=O)[C@@H]2CCCN2C(=O)[C@@H](CC2CCCCC2)NCC(=O)O)cs1 [Example 65] | 4,500 × 10^6 L/mole
Cl.Nc1ccc(CNC(=O)[C@@H]2CCCN2C(=O)[C@@H](CC2CCCCC2)NCC(=O)O)cn1 [Example 74] | 29 × 10^6 L/mole
Cl.Nc1cc(CCNC(=O)[C@@H]2CCCN2C(=O)[C@@H](CC2CCCCC2)NCC(=O)O)ccn1 [Example 76] | 12 × 10^6 L/mole
CCC(CC)C(=O)N[C@@H](CCS(C)(=O)=O)C(=O)N1CCC[C@H]1C(=O)NCc1ccc(C(=N)N)cc1 [Example 91] | 3.6 × 10^6 L/mole
Cl.NC[C@H]1CC[C@H](CNC(=O)[C@@H]2CCCN2C(=O)[C@H](N)Cc2ccccc2)CC1 (relative stereo) [Example 12] | 0.44 × 10^6 L/mole
Cl.N=C(N)c1ccc(CNC(=O)[C@@H]2CCCN2C(=O)[C@@H](CC2CCCCC2)NCC(=O)O)c(F)c1 [Example 71] | 1,400 × 10^6 L/mole
N=C(N)c1ccc(CCNC(=O)[C@@H]2CCCN2C(=O)[C@@H]2NCC[C@@H]3CCCC[C@@H]32)cc1 [Example 28] | 0.95 × 10^6 L/mole
N=C(N)c1cccc(CNC(=O)[C@@H]2CCCN2C(=O)[C@@H]2NCC[C@@H]3CCCC[C@@H]32)c1 [Example 25, D-1-Piq-Pro-m-NHCH2 -C6 H4 C(=NH)NH2.HCl] | 0.43 × 10^6 L/mole

# input Look up Kass × 10^6 (L/mole) Human Thrombin for this compound: Cl.N=C(N)c1ccc(CNC(=O)CN(CCc2ccccc2)C(=O)CNCC(=O)O)cc1 [Example 89]
# output 0.14 × 10^6 L/mole

# input Look up Kass × 10^6 (L/mole) Human Thrombin for this compound: CCOC(=O)N[C@H](Cc1ccccc1)C(=O)N1CCC[C@H]1C(=O)NCCCCN=C(N)N.Cl [Example 3, EtOCO-D-Phe-Pro-Agm.HCl]
# output 2.1 × 10^6 L/mole

# input Look up Kass × 10^6 (L/mole) Human Thrombin for this compound: N=C(N)NCCCCNC(=O)[C@@H]1CCCN1C(=O)[C@@H]1NCC[C@H]2CCCC[C@H]21 [Example 61, trihydrochloride]
# output 63 × 10^6 L/mole

# input Look up Kass × 10^6 (L/mole) Human Thrombin for this compound: Cl.O=C(O)CN[C@H](CC1CCCCC1)C(=O)N1CCC[C@H]1C(=O)NCCC1=CCNCC1 [Example 59]
# output 1.10 × 10^6 L/mole
